tested on: Escherichia coli TOP10; assay: shrunken log2 fold change of peptide-encoding DNA abundance (4.5 h post-induction vs induction); higher = less antimicrobial activity (less host growth inhibition); details: time post-induction: 4.5 h; library: site-saturation at positions 5, 18, 19, 20
Measured shrunken log2 fold change of individual entries

residue codes | shrunken log2 fold change
RRIRDRPPRLPRPRPRPRWPPRP | 0.594
RRIRSRPPRLPRPRPRPPYDPRP | -0.397
RRIRIRPPRLPRPRPRPWWEPRP | -0.109
RRIRHRPPRLPRPRPRPHNEPRP | -0.458
RRIRMRPPRLPRPRPRPHVYPRP | -0.207
RRIRTRPPRLPRPRPRPWPCPRP | -0.0128
RRIRERPPRLPRPRPRPKCIPRP | -0.464
RRIRVRPPRLPRPRPRPEMKPRP | -0.184
RRIRRRPPRLPRPRPRPTSWPRP | 1.52
RRIRCRPPRLPRPRPRPEYQPRP | 0.123
RRIRCRPPRLPRPRPRPDVYPRP | 0.0165
RRIRWRPPRLPRPRPRPSPFPRP | -0.245
RRIRWRPPRLPRPRPRPLGYPRP | -0.24
RRIRGRPPRLPRPRPRPFVFPRP | 0.608
RRIRPRPPRLPRPRPRPHEDPRP | -0.0757
RRIRSRPPRLPRPRPRPRYQPRP | -0.145
RRIRHRPPRLPRPRPRPSHTPRP | -0.248
RRIRSRPPRLPRPRPRPWTRPRP | 0.0569
RRIRHRPPRLPRPRPRPWCKPRP | -0.111
RRIRQRPPRLPRPRPRPCANPRP | 0.00875
RRIRMRPPRLPRPRPRPGYLPRP | 0.0963
RRIRYRPPRLPRPRPRPVSLPRP | -0.267
RRIRDRPPRLPRPRPRPTFTPRP | 0.347

* * *

test system: Escherichia coli TOP10; experiment: shrunken log2 fold change of peptide-encoding DNA abundance (4.5 h post-induction vs induction); higher = less antimicrobial activity (less host growth inhibition); settings: time post-induction: 4.5 h; library: site-saturation at positions 5, 18, 19, 20
Hi, to clarify the labels: satisfied covers shrunken log2 fold change from -0.2 upward, not satisfied covers anything below -0.2.

residue codes | group label
RRIRMRPPRLPRPRPRPRECPRP | satisfied
RRIRPRPPRLPRPRPRPYCKPRP | not satisfied
RRIRERPPRLPRPRPRPFYDPRP | satisfied
RRIRKRPPRLPRPRPRPGELPRP | satisfied
RRIRYRPPRLPRPRPRPYNNPRP | not satisfied
RRIRYRPPRLPRPRPRPSSSPRP | satisfied

* * *

shrunken log2 fold change values, listed per item
tested on: Escherichia coli TOP10; experiment: shrunken log2 fold change of peptide-encoding DNA abundance (4.5 h post-induction vs induction); higher = less antimicrobial activity (less host growth inhibition); conditions: time post-induction: 4.5 h; library: site-saturation at positions 5, 18, 19, 20
parameter: shrunken log2 fold change

residue codes | readout value
RRIRVRPPRLPRPRPRPDAFPRP | 0.203
RRIRPRPPRLPRPRPRPVKGPRP | 0.203
RRIRIRPPRLPRPRPRPGGVPRP | 0.0574
RRIRMRPPRLPRPRPRPDDYPRP | 0.766
RRIRVRPPRLPRPRPRPPWSPRP | 0.161
RRIRERPPRLPRPRPRPACAPRP | 0.455
RRIRRRPPRLPRPRPRPSEWPRP | -0.15
RRIRMRPPRLPRPRPRPDAVPRP | 3.73
RRIRNRPPRLPRPRPRPTRGPRP | 0.725
RRIRTRPPRLPRPRPRPKVCPRP | -0.00594
RRIRCRPPRLPRPRPRPNFNPRP | -0.372
RRIRKRPPRLPRPRPRPVLNPRP | 0.0304
RRIRRRPPRLPRPRPRPQPCPRP | -0.101
RRIRNRPPRLPRPRPRPVFKPRP | -0.183
RRIRTRPPRLPRPRPRPIDEPRP | 0.0904
RRIRRRPPRLPRPRPRPNEEPRP | 0.0468
RRIRCRPPRLPRPRPRPYEMPRP | -0.151
RRIRGRPPRLPRPRPRPCSPPRP | 0.0454
RRIRCRPPRLPRPRPRPYIIPRP | -0.985
RRIRGRPPRLPRPRPRPQSFPRP | 0.218
RRIRWRPPRLPRPRPRPVRKPRP | 0.167
RRIRWRPPRLPRPRPRPCNHPRP | -0.427
RRIRARPPRLPRPRPRPMPCPRP | 0.535
RRIRNRPPRLPRPRPRPEAKPRP | 0.302
RRIRARPPRLPRPRPRPFPMPRP | 0.335
RRIRGRPPRLPRPRPRPVRCPRP | 0.814
RRIRCRPPRLPRPRPRPGFRPRP | 0.498
RRIRYRPPRLPRPRPRPYYLPRP | -0.31
RRIRKRPPRLPRPRPRPIFTPRP | 0.118
RRIRYRPPRLPRPRPRPEPIPRP | -0.103
RRIRVRPPRLPRPRPRPNYYPRP | -0.373
RRIRMRPPRLPRPRPRPCPEPRP | 0.123
RRIRGRPPRLPRPRPRPPGHPRP | 0.772

* * *

Quick reference for shrunken log2 fold change among some sequences
tested on: Escherichia coli TOP10; test: shrunken log2 fold change of peptide-encoding DNA abundance (4.5 h post-induction vs induction); higher = less antimicrobial activity (less host growth inhibition); settings: time post-induction: 4.5 h; library: site-saturation at positions 5, 18, 19, 20

residue codes | experimental target | shrunken log2 fold change
RRIRDRPPRLPRPRPRPKKEPRP | Escherichia coli TOP10 | 0.0609
RRIRKRPPRLPRPRPRPMEVPRP | Escherichia coli TOP10 | 0.101
RRIRERPPRLPRPRPRPKVIPRP | Escherichia coli TOP10 | -0.0206
RRIRRRPPRLPRPRPRPGGCPRP | Escherichia coli TOP10 | 0.325
RRIRMRPPRLPRPRPRPDSFPRP | Escherichia coli TOP10 | -0.0586
RRIRLRPPRLPRPRPRPWICPRP | Escherichia coli TOP10 | -0.213
RRIRIRPPRLPRPRPRPRHAPRP | Escherichia coli TOP10 | 0.128

* * *

tested on: Escherichia coli TOP10; test: shrunken log2 fold change of peptide-encoding DNA abundance (4.5 h post-induction vs induction); higher = less antimicrobial activity (less host growth inhibition); conditions: time post-induction: 4.5 h; library: site-saturation at positions 5, 18, 19, 20
parameter: shrunken log2 fold change

residue codes | parameter | readout value
RRIRFRPPRLPRPRPRPRWKPRP | shrunken log2 fold change | 0.217
RRIRHRPPRLPRPRPRPTIFPRP | shrunken log2 fold change | -0.0675
RRIRERPPRLPRPRPRPGWEPRP | shrunken log2 fold change | 0.0307
RRIRQRPPRLPRPRPRPRPYPRP | shrunken log2 fold change | -0.357
RRIRSRPPRLPRPRPRPPHQPRP | shrunken log2 fold change | 0.27

* * *

system: Escherichia coli TOP10; assay: shrunken log2 fold change of peptide-encoding DNA abundance (4.5 h post-induction vs induction); higher = less antimicrobial activity (less host growth inhibition); conditions: time post-induction: 4.5 h; library: site-saturation at positions 5, 18, 19, 20;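 further: peptides expressed intracellularly from a pBAD plasmid library in pooled LB shake-flask culture, induced with 0.3% L-arabinose, DNA abundance read by NGS, three biological replicates, DESeq2 with apeglm shrinkage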
The label depends only on shrunken log2 fold change: fulfilled if it is at least 0.01, not fulfilled if it is smaller.

residue codes | group label
RRIRYRPPRLPRPRPRPFYCPRP | not fulfilled
RRIRNRPPRLPRPRPRPTTSPRP | not fulfilled
RRIRGRPPRLPRPRPRPMMHPRP | fulfilled
RRIRKRPPRLPRPRPRPIPVPRP | not fulfilled
RRIRTRPPRLPRPRPRPIPTPRP | not fulfilled
RRIRGRPPRLPRPRPRPCCFPRP | fulfilled
RRIRVRPPRLPRPRPRPNFHPRP | not fulfilled
RRIRIRPPRLPRPRPRPHSFPRP | not fulfilled
RRIRNRPPRLPRPRPRPFIKPRP | not fulfilled
RRIRERPPRLPRPRPRPGLYPRP | not fulfilled
RRIRCRPPRLPRPRPRPCPIPRP | not fulfilled
RRIRLRPPRLPRPRPRPVWDPRP | not fulfilled
RRIRQRPPRLPRPRPRPEFVPRP | fulfilled
RRIRTRPPRLPRPRPRPQRLPRP | not fulfilled
RRIRARPPRLPRPRPRPNAHPRP | fulfilled
RRIRYRPPRLPRPRPRPEYVPRP | not fulfilled
RRIRCRPPRLPRPRPRPQPDPRP | fulfilled
RRIRVRPPRLPRPRPRPRKMPRP | fulfilled
RRIRLRPPRLPRPRPRPRGAPRP | fulfilled
RRIRQRPPRLPRPRPRPVTCPRP | fulfilled
RRIRRRPPRLPRPRPRPIIGPRP | fulfilled
RRIRKRPPRLPRPRPRPTFRPRP | fulfilled
RRIRIRPPRLPRPRPRPYMWPRP | not fulfilled
RRIRARPPRLPRPRPRPAQGPRP | fulfilled
RRIRHRPPRLPRPRPRPIYNPRP | not fulfilled
RRIRERPPRLPRPRPRPIHSPRP | not fulfilled
RRIRARPPRLPRPRPRPANGPRP | fulfilled

Reference source: the supplement of paper PMC9112550
